List of Binding Constant, sequence ACTACT values.
Tested on: ACTACT
Experiment: DNase I footprint titration, ACTACT site
Type: binding
Conditions: equilibrium association constant Ka; pH 7.0, 22° C.
// return numeric value only (unit: M⁻¹, not printed)

Query :: Answer briefly: Binding Constant, sequence ACTACT recorded on ACTACT for CN(C)CCCNC(=O)c1cc(NC(=O)c2cc(NC(=O)c3cc(NC(=O)c4nsc(NCCCN)c4Cl)cn3C)cn2C)cn1C [V-b]
Result :: 2e+08

---

Test system: ACTACT
Test: DNase I footprint titration, ACTACT site
Type: binding
Settings: equilibrium association constant Ka; pH 7.0, 22° C.
QUANTITY: Binding Constant, sequence ACTACT (M⁻¹)
Write the answer as a number in M⁻¹, unit excluded.

Here are 4 compounds together with their reported answers.
INSERT INTO measurements (smiles_representation, tested_on, quantity, unit_of_measurement, observed) VALUES
  ('CN(C)CCCNC(=O)CCNC(=O)c1cc(NC(=O)c2cc(NC(=O)c3cc(NC(=O)c4nc(NC(=O)CCCNC(=O)c5cc(NC(=O)c6cc(NC(=O)c7cc(NC(=O)c8nsc(Cl)c8Cl)cn7C)cn6C)cn5C)cn4C)cn3C)cn2C)cn1C', 'ACTACT', 'Binding Constant, sequence ACTACT', 'M⁻¹', '2e+09'),
  ('CN(C)CCCNC(=O)CCNC(=O)c1cc(NC(=O)c2cc(NC(=O)c3cc(NC(=O)c4nsc(Cl)c4Cl)cn3C)cn2C)cn1C', 'ACTACT', 'Binding Constant, sequence ACTACT', 'M⁻¹', '1e+09'),
  ('CN(C)CCCNC(=O)CCNC(=O)c1cc(NC(=O)c2cc(NC(=O)c3cc(NC(=O)c4nc(NC(=O)CCCNC(=O)c5cc(NC(=O)c6cc(NC(=O)c7nsc(Cl)c7Cl)cn6C)cn5C)cn4C)cn3C)cn2C)cn1C', 'ACTACT', 'Binding Constant, sequence ACTACT', 'M⁻¹', '1e+08'),
  ('CN(C)CCCNC(=O)CCNC(=O)c1cc(NC(=O)c2cc(NC(=O)c3cc(NC(=O)c4cc(NC(=O)c5nsc(Cl)c5Cl)cn4C)cn3C)cn2C)cn1C', 'ACTACT', 'Binding Constant, sequence ACTACT', 'M⁻¹', '2e+08');

Query :: Supply measured Binding Constant, sequence ACTACT of CN(C)CCCNC(=O)c1cc(NC(=O)c2cc(NC(=O)c3cc(NC(=O)c4nsc(NCCN)c4Cl)cn3C)cn2C)cn1C in your reply.
Result :: 2e+08

Query :: Return Binding Constant, sequence ACTACT (reported value) for this compound: CN(C)CCCNC(=O)c1cc(NC(=O)c2cc(NC(=O)c3cc(NC(=O)c4nsc(NCCCCN)c4Cl)cn3C)cn2C)cn1C
Result :: 1e+08

Query :: For the compound CN(C)CCCNC(=O)CCNC(=O)c1cc(NC(=O)c2cc(NC(=O)c3cc(NC(=O)c4nc(NC(=O)CCCNC(=O)c5cc(NC(=O)c6cc(NC(=O)c7cc(NC(=O)c8nsc(NCCCN(C)C)c8Cl)cn7C)cn6C)cn5C)cn4C)cn3C)cn2C)cn1C , give its measured Binding Constant, sequence ACTACT value.
Result :: 7e+09

Reference source: patent US20020065227A1
